Consider the following sequences; for each one, report its protease stability score.
experiment: protease stability score; higher = more stable; yeast display proteolysis, trypsin and chymotrypsin;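 also: relative to predicted unfolded state with 0 unfolded-like and 1 meaning tenfold more protease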
No unit in the answer, only the number.

protease stability score for DENEEDSKRAVELIEDSMKTGDEELMTKQMDPNVRVDYNGKEHHGWEHAKRWFHLMGVDHLHLHRVRLINGVVHLDVDSRINGREFKVHITALKVDGQWVLKEISIR ?
1.26

Do the same for SEEEEWIIKVLRELTKSMETGDEDHLHHLADPDVRLHVGDKEFHGREDFKKWYTHLRIKHFELTDMRIQGEKAHLKVRVHMRYGDKEDRKEVDFTMIKIDGRWYLHSVHVR please
2.09

Same lookup for SEDEEDLKRIVELLVRALKTGDEDLIRHLADPHVRLEVGDKEHHGREEYTRWAENFVERIDHVNIHIKRMTTIGNYLQMDVRLEERFDGRRVELRHYLIILKVDGRWVIKEVQIE , please.
1.25

Try the sequence SEDEENAKFVLHELYKADETGDERKQSHMMDPNVRIIVGDKEWVGRDEVVELMHEIRVHRVHIDDFRFQGDKIEVHGTTKGEFNGKRDVYHVHWLILKIDGRWRLQSLEVR
1.11

How about DEEEKRIEEIARLIFKLWHTGDEEHFLRLADPHVRLNVDGRELHGRERVKHWLHELRHRVDHITDYKEKHKENQGEFFVQWGVLDVHVDGKNVRTRVRIEIVVIDGKINEVRIEVH ?
1.36

Would you mind doing DEEEQSERIALELLDKSINTGDERVWKEMFDPRVIMDINGVKLIGREDYRRWRERFDHEENRDFKIHHHEVQGNKVHLDVEIDLTLNFDGKRHRHIFRTEVDVIKFDGKWHIRSLIVK as well?
1.18

What about this sequence? SEEDKEFEDLIKFWIHLLETGDFDTLRDLADPHVRVTIDGRDLHGREILLTFWEKVKNIKLDLKSIRVINGVVIMHGDTNFDGKRSHVELHIKKINGRWYITEFRIE
2.25

And what about the sequence SEYYEESKRMAEEHQHMRETGDEDRLRHLMDPTTKVEVGDKEFHGREWWHEFYKRFDHIEFRIHDIKLIDGVAIIQSIIIVRQGDKSDTLHVTIRITKVNGRWRTKSFEVI ?
1.48

Now give it for DEDTKHDEEMFRLVLHLLRTGDEEKLTELADPNVRLEVDIDGRRDTYHGREEMLKWLQELLKRYKNMTIKVHRVSVVNGKAHMDGITKVGDKEFKELRIWVVIDGKIRTIKIEIL too.
2.27

Thanks! And SEEEEFTKLLLELLAHALRTGDESMLQYLADPNVRIDINGKELHGMEVLTHWLRRIDHIDSFFHIDHIDLVDGKLKVNGRTELIVRQGDKSHHSEWDVRIISDKVNGRWLLESISFK ?
2.08

Input DEDKEIADNFLKQLLRDIQTGDEDSFIERLDPNARLQVGDKHVHGMDEVLRTRREWVKLMGADHIHHVEVNHVHIQGDKVHMDVEVDVEFNGKRRRLKSHLILTKVDGQWIITMEIIK
1.08

Please do the same for DHVEEEAEEFVRNFIHNMRTGNWKYMEELLDPNVRLRYGDKDHHGREEMVKWIEEAFKKFKNLTIEIKHINIIGDKLIFDLHVEFNGKHHQLHLIVTKIDGKWISKSIHVD as well.
1.47

Then DEHRKHAEDIFRLWLKAVKTGDEEHILDLMDPHVRLIILVGDKEIHLHGREEMKKENERLRHEWGVDRIRLEITRLDVQGDKIHSDGIDIFNGRNFRVKHHMKVVNGRVEEIKIEFE ?
0.462

Ok, now RDEDEVVDHIARLIVEAWRTGDEDWLKKMADPNVKQHIHIDGKTEINHGREEMIHQLERLHRKLGVDHHHLKSSTVIGDKIKIHMEERIGDFSIFVHVEFIVINGRMKEIRISIERE
0.931

Next sequence: SETHEILERIMRMILEILYTGDEESMSRLLDPHVKLVVVIGDKELHLHGRENALRWLVHWRIEDYRLRRYTVQGDKAHVDTESTGNYNGQREESRFSLHVKVINGKIHNMKFEFE
2.56

Note, next up: DEEEHELQEAIEILKHDIETGNWERFVKRADPHARIRFNGRDLHGWERMKEVFEHVSKEFQNQKVEFETEHYFDGRVEVIVNIRIGDKNIHMRIISDKINGQWITREVRFH
1.41

Subsequent entry: DEDEEKARKFTELLVRSWRTGDEDSLREMVDPHVRVDVDGVKLHGWHDFMKLVRHIRVRDLHNREFTFFEGRADIIQETDVDIGDKERRTVITIRMTKYDGRWFLHNVTVH
1.38

SEEDRFLYEFARTILHLFETGNEEIFHKLADPHVRLHVNGVDNVGWERSYKFFHEEVRELRFHTWRIRDHRTFENRAHLDIEVDTEFNGVRLHLKSTLDVVVVNGRLKFFHIKQE , same question.
0.424

Moving on to the next sequence: SDEEHVSRIALEIDIWLKETGDEHLLRHYLDPDTRSHFNGRSVHGMDILIKILHHWRIHDLEVKRMHLVGDFVELDIRVDGTFNGRRINMEQIIHVEKIDGQWHLKEVRIH
1.54

And DELNELNKEAFETYHQISETGNETMHSRNADPHVRIDINGVEYHGWEHAERLWKNLGVKHIQFHDIEIQGNKLIITVIVEVNGQETRSEVILLKINGRWLIHSLSFR ?
1.06

And then SEKEELDQKFIEDYIRHLLTGDFESLTKMADPNVRLSIDGQNHHGRENFERFAFEWIEKYKNVRIHVRDVHVVDGQAHIIMTLDINGKTREVHIEVFIVNGRIKSNELRYR , what is it?
1.36

Would you kindly repeat that for DEEEKVVFELLRLFITAWETGDEDVLLRLADPNVRMTIGDKHYHGMEHFSHVYLLIFEELRITVKVHDIRIIGDKAYVDVEERRHQGDKSWKYRTHYEFEKIDGRWKLRRVEVK ?
2.54

---

assay: protease stability score; higher = more stable; yeast display proteolysis, trypsin and chymotrypsin;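 also: relative to predicted unfolded state with 0 unfolded-like and 1 meaning tenfold more protease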
ENDPOINT NAME: protease stability score
The answer should be written as a number, with no unit following it.

Look at this sequence and give its reported protease stability score. DESHQLMLELLEELFHLLLTGNEETILRLADPNTRLQINGQETHGRESARHYWQRFLEHWRLKDYRIRSLYSQGDKAIIHTEVVLHYNGRDFRVTTEIRLWVFDGKIHEIIIIIN
1.53

Entry to check: SEVEDFLHEFVRKLVRVLDTGDWEVLEKMFDPNTRFHIGDKELHGREEFVKFTEELGIRVRWELKDIRFQGDKAETIGTERVDFNGKEITTDVTFEVLLFNGVIKEIRIRRR
1.36

Another sequence to check: NEDEREFRIFLELFILAMRTGDETTFKKLLDPDVKFRINGKEYHGWEEVWHVLEEIRIHDIKLTDMERVGDKLHLITRVEGEFDGRRHEIDTRLHVRKIDGRWLLRTVEIS
2.13

Try this sequence too: DHEEHYSRIAVQEVLHRMLTGDEESLVKLADPHTRMTIGDKELHGWELVFEFLRDWVHKFKNIRLHIHQHEVQGDKIHIEIRVLIDGKEQDVKIHAEKIDGKWIYRQSHFR
0.751

Try this sequence too: DEDEKEIAKTVKELVHSLRTGDWEKITRMADPHVKIHVNGRELHGWEEMRRFEEEEFKRLGFKHRDVELKDFRYQGNFAHVHGNLVVEFNGVEEEIDQHIIILKVNGRWLITEIRHH
1.31

Could you do the same for DEDKEIAEKVAREVFHNFMTGDEDRHLELADPHTRLRVGEWENHGRDQVKRMFERQRRRFDHLERIEIKDVRIYDGVVHLHVEVHGVINGVSTTLEMRVYFVVVNGQLKRSSIHIH , please?
0.373

And what about the sequence DEEERHMKKLLDELLRAWVTGDESRLSELLDPNARSIVNGKSSHGREESEKIVRWAGVKHFNEDDTKLINGVVVVKGTMEVDGVTWEVDIRNFIFDGRVKEVRIIIR ?
1.19

Check SEDEKFARHVVKLWEDNYKTGNFEELLHMMDPHVKIKVNGRELHGWEELEKILTEFHERFRNQKLDIKLRDLKIQGNYVHADMELTIHYNGQEHREQVHLVVRKVNGRWEIEKITFD too.
0.813

Field entry: DEEEHLARKIATIMIHTLITGNEEEMRRLADPTTRFHDEDHTFHGMEEYNRFIKEWRERFPGVKEEWKIRHIHVINGVAHFDIELRIIVGDKEVSDRVEFIIVVVDGRVKSFELRHK
2.15

Continue with HEEKHEVQRFLEMLIELLVTGNEEILEHLADPHVRLEIDGRHFHGWKEFTRQYSELLKKLGADHVDMKIHEVHIIGDKVFIRGTDEFRVGDKTERKESHWVLLKVDGRWFIHSVKIG
1.99

And what about the sequence SEEEKLWHEIIRRILHSWDTGDEDTLNELIDPNARLIIDVNGRIIRRHGWEEMHEFIEKVRRDLGADHVHFDHINIQGNKVETDVTIEIGDKKMRSHLIIIVIDGQIHELKIIHR ?
1.83

And then REEEETLDRAIREMLRNMRTGDEHRMRELMDPNVRAHINGREIHGREEVVRHLVEWLKRVDHIEFKLEHQVVYGEKIDLDTRVTIRVNGVELRHKTHQRVHKIDGKWVLDELEIS , what is it?
2.05

Would you kindly repeat that for SEDEKDVKDAFDIWYESHITGNEEYARKMADPDTLSIVNGVRIHGMETWMHFLLKHQKELGIDVYTTDIHHVEVFDGRVKVDLRMREIFNGRHLEFETEVISEKIDGRWHVRSIRIT ?
1.36

Same read-out for REEEELLKKLADHWWENVRTGDERRMRELFDPNTQFVIEVGDKKFTRHGRDELVHSLEHARIHDFHIKDQRPQGDFIEVEGEIDGEIDGRRFRTDVRVWIVIVNGRLKQIHIHVG ?
1.15

Thanks! And SEEERDVKEVLKLIFEHFLTGDWDWLSEMMDPHARSDINGVERHGRDDLKEMYEAIIRKLGADHIRVDTVRVDLFDGRLIVEIHTRNHVGDKEFRVINIFIMRKINGRWHVESVLLHIE ?
1.56

Try SEEDHDRELWISLLKKEAETGDERQVRENLDPNVQLDVGDKTFHGREIVLDHIHEEWKRLGLDRIKLFVDSIRIQGDKVRLDGSLDVNGKEIRVNIFLRKINGRWHIEFIHID next.
0.666

# iterate: SEERERVRKIHEWLVRFLETGDEESFNHLADPNMRLIVWYNGVNIVFIGRESWREFLRLFREEMRLHRIRVHHVDVQGEKVTSDTRNDGEVNGQRTEFETHVEVVLINGRLKLVLLEFK
2.33

Same thing, different sequence: SEDEEKASEVARRFVRSLATGDFDTLTRLMDPNYKHVYGDKEFVGREVIREHLEELRLHFEDNKVKHVRVIGDKIDTDMEVRFTVEFDGVRVHHEMKVEFRILKINGRWFLEFTIIR
0.337

SDQDHLTELAEHLFEYSLETGDEELMDKNFDPNMKLEVGEKHEHGRHVAETFSRRFDVVKSIEMKHVTTINGVAEIDGHIDGNFNGVDIRTDVRLVSLKIDGRWFIHSITFV , same question.
0.319

Now consider DEEEERTKHHFELLFKLWTTGDEDSLSHLADPNVRVHVDGKDFHGWEDMKDFMREWIERFKNVRLELKHFEAQGDKASSEIKIHYGDKHVTEFIEIILFNGRLHEIRRLFKRD and answer again.
1.01

Next: SEEEKKSKDALRFLEEVWKTGDWDDFRKMIDPHVRIEVNGRTYHGMEDAEKFARDLLKRVKNMKVSIRHIETQGDKMIVHGELNIDGVHSEIQIFTDKIDGRWLLKEVNFI
0.498

HEHEQQVREIAKKLLHALLTGDEDEIYRLIDPNVRLIILVGDKEIHVHGRELVSEVMHKLFRELGVDHWHSRSELLIGNKFHVDTEQHFNGQTFETQVHILVIDGKVHLLTLQIH ?
1.88
